Measured values drawn from patent US20220064275A1 for this set.

- Test system: hLTBP3-proTGFβ1 complex made by transfected cells (cell-based potency assay) (human, UniProt Q9NS15 44-1303; P01137 30-390)
- Sequence (Q9NS15 44-1303, chain 1 of 2): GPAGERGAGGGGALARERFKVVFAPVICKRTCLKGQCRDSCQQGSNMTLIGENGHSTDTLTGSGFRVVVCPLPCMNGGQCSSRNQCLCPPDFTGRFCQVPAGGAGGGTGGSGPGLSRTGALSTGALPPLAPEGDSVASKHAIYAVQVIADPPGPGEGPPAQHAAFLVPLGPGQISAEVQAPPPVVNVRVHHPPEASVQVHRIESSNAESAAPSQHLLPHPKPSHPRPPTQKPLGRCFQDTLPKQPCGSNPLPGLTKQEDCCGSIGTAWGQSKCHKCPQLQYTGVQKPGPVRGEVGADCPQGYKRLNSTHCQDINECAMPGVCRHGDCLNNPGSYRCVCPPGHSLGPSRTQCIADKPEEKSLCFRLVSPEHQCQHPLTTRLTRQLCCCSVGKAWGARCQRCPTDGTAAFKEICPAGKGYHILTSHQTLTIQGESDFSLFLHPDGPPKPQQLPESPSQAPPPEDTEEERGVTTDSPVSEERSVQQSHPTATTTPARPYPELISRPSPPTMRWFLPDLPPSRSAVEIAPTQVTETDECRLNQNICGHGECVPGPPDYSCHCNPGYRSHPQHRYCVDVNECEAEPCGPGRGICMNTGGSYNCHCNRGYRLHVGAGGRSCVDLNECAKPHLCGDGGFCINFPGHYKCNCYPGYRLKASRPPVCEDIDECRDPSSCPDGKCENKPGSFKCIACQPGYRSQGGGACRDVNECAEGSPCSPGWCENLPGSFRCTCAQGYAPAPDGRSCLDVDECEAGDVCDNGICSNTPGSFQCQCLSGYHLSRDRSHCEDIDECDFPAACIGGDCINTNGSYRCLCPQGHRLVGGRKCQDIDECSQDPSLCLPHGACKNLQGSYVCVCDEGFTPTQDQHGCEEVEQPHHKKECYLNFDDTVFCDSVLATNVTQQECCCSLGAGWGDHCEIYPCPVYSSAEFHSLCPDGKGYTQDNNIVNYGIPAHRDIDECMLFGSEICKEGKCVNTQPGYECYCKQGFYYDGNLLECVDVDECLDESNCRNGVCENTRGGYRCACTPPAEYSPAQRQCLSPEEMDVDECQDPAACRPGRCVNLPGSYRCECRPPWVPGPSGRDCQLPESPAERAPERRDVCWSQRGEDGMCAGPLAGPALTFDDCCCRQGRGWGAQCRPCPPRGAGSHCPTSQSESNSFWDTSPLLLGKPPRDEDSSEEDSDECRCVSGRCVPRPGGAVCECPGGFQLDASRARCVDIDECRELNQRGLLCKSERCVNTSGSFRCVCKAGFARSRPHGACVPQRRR
- Sequence (P01137 30-390, chain 2 of 2): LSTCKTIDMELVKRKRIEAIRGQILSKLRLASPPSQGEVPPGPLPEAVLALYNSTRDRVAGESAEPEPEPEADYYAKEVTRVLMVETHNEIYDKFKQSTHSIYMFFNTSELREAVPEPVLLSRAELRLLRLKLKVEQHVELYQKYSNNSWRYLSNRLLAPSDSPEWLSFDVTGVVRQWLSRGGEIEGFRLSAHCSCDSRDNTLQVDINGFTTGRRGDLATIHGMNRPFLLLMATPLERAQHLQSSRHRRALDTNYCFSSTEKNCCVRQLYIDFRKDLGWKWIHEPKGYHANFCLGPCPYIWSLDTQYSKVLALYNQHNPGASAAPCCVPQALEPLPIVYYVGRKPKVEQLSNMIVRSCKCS
- Method: cell-based or functional assay
// NB: equality with 2 nM counts as n; only IC50, reporter cell assay of TGFβ1 activation strictly below is y

Ab5 (antibody, V domains shown) VH: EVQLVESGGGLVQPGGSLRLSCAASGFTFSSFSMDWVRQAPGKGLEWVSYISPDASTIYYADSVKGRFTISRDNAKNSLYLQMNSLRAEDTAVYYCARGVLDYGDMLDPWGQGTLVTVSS VL: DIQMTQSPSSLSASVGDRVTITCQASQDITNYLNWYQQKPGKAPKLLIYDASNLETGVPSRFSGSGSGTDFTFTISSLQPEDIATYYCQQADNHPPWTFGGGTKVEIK: y
Ab19 (antibody, IgG4, V domains shown) VH: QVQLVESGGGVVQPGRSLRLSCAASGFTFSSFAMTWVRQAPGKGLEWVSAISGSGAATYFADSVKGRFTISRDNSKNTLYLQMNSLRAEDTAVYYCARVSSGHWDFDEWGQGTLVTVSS VL: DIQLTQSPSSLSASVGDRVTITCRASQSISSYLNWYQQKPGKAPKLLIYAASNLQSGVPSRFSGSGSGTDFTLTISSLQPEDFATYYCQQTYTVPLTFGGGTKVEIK: y
Ab33 (antibody, IgG4, V domains shown) VH: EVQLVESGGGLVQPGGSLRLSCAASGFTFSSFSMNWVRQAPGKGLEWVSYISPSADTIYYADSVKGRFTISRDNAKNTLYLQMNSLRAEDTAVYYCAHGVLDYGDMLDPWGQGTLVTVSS VL: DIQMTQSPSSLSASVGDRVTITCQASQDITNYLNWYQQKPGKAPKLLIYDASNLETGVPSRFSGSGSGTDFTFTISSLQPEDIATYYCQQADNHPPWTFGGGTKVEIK: y
Ab6 (antibody, human IgG4 S228P, kappa, V domains shown) VH: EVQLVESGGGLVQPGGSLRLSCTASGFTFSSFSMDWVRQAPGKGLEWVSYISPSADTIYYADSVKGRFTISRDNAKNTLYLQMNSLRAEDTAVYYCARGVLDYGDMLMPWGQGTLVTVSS VL: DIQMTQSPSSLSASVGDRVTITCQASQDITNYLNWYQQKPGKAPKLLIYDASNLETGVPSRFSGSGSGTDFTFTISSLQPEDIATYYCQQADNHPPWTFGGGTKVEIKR: y

Ask | Consider the binder Ab29 (antibody, IgG4, V domains shown) VH: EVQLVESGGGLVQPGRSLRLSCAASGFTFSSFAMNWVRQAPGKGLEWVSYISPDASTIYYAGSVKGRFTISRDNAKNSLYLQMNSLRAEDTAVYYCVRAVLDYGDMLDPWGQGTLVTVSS VL: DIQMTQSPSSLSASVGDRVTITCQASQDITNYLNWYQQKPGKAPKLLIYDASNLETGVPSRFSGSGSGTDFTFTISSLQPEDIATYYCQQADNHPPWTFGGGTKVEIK . Is its IC50, reporter cell assay of TGFβ1 activation strictly less than 2 nM?
Reply | y

Ask | Consider the binder Ab4 (antibody, IgG4, V domains shown, also called parental lead antibody of Ab6) VH: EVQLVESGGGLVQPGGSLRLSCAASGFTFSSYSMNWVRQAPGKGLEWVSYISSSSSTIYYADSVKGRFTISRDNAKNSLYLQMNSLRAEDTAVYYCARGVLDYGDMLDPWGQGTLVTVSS VL: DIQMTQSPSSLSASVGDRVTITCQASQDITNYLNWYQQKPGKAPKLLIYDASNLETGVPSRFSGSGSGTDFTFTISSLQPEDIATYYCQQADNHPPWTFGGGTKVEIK . Is its IC50, reporter cell assay of TGFβ1 activation strictly less than 2 nM?
Reply | n

Ask | Consider the binder Ab12 (antibody, IgG4, V domains shown) VH: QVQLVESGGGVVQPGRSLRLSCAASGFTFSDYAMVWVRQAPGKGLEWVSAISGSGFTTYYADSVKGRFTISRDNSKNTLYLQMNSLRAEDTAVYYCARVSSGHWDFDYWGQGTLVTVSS VL: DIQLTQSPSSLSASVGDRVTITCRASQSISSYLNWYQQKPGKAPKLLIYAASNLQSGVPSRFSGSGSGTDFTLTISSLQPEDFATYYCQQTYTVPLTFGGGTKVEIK . Is its IC50, reporter cell assay of TGFβ1 activation strictly less than 2 nM?
Reply | y

Ask | Consider the binder Ab1 (antibody, V domains shown) VH: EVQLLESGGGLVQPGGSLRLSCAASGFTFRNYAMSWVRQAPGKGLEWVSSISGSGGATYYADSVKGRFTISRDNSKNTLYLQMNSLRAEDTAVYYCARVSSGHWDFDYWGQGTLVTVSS VL: DIQLTQSPSSLSASVGDRVTITCQASQDISNFLNWYQQKPGKAPKLLIYDASNLETGVPSRFSGSGSGTDFTFTISSLQPEDIATYYCQQVFNPPLTFGGGTKVEIK . Is its IC50, reporter cell assay of TGFβ1 activation strictly less than 2 nM?
Reply | n
